Target: human full-length HSP90 (Homo sapiens)
Construct: E. coli expressed human full-length HSP90 protein; made in house; host or cells: E. coli
Sequence (P08238 whole entry): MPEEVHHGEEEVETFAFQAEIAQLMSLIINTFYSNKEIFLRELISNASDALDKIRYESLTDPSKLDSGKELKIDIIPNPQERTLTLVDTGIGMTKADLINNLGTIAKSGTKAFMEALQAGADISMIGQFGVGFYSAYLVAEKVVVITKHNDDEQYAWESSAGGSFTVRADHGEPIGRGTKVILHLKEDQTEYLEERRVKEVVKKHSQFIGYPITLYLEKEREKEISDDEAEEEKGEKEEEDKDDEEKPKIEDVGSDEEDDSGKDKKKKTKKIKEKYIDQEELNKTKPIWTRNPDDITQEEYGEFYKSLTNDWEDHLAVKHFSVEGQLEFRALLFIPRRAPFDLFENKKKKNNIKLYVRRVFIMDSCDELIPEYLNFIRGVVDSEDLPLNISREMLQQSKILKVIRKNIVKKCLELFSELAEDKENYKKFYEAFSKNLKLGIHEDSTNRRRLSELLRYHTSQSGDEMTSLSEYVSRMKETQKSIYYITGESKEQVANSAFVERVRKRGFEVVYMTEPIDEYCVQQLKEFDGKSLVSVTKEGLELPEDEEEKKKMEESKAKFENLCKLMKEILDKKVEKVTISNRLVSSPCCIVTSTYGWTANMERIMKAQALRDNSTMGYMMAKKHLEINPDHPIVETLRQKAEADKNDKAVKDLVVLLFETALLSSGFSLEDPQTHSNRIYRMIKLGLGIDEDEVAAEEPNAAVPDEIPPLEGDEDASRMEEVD
Assay: Fluorescence Polarisation Assay (displacement of fluorescein-labelled probe RBT0045864-FAM)
Format: binding
Settings: Fluorescence Polarisation Assay, activity range
pIC50: −log10 of the molar value.
Measured pIC50 values are reported for all entries that follow.
Measurement type: pIC50

[[record]]
molecule = "CCNC(=O)c1noc(-c2cc(Cl)c(O)cc2O)c1-c1cccc(CN2CCN(C(C)=O)CC2)c1 [Example 62]"
measurement_type = "pIC50"
assay_result = "> 5.00"

[[record]]
molecule = "CCNC(=O)c1noc(-c2cc(Cl)c(O)cc2O)c1-c1ccc(CN2CCC(O)CC2)cc1 [Example 53]"
measurement_type = "pIC50"
assay_result = "> 5.00"

[[record]]
molecule = "CCNC(=O)c1noc(-c2cc(Cl)c(O)cc2O)c1-c1ccc(CN2CCCCC2)c2ccccc12 [Example 41r]"
measurement_type = "pIC50"
assay_result = "> 5.00"

[[record]]
molecule = "CCNC(=O)c1noc(-c2cc(Cl)c(O)cc2O)c1-c1cccc(N2CCN(C)CC2)c1 [Example 31]"
measurement_type = "pIC50"
assay_result = "> 5.00"

[[record]]
molecule = "CCNC(=O)c1noc(-c2cc(Cl)c(O)cc2O)c1-c1ccc(CNCc2cccnc2)cc1 [Example 58]"
measurement_type = "pIC50"
assay_result = "> 5.00"

[[record]]
molecule = "CCNC(=O)c1noc(-c2cc(CC)c(O)cc2O)c1-c1ccc(CN2CCCCC2)cc1 [Example 56]"
measurement_type = "pIC50"
assay_result = "> 5.00"

[[record]]
molecule = "CCNC(=O)c1noc(-c2cc(Cl)c(O)cc2O)c1-c1ccc(F)cc1F [Example 41e]"
measurement_type = "pIC50"
assay_result = "> 5.00"

[[record]]
molecule = "CCNC(=O)c1noc(-c2cc(CC)c(O)cc2O)c1-c1ccc(CN2CCOCC2)cc1 [Example 55]"
measurement_type = "pIC50"
assay_result = "> 5.00"

[[record]]
molecule = "CCNC(=O)c1noc(-c2cc(CC)c(O)cc2O)c1-c1ccc(CN(CC)CC)cc1 [Example 41b]"
measurement_type = "pIC50"
assay_result = "> 5.00"

[[record]]
molecule = "CCNC(=O)c1noc(-c2cc(Cl)c(O)cc2O)c1-c1ccc(N2CCNCC2)cc1 [Example 26]"
measurement_type = "pIC50"
assay_result = "> 5.00"

[[record]]
molecule = "CCNC(=O)c1noc(-c2cc(Cl)c(O)cc2O)c1-c1ccc(CO)cc1 [Example 41n]"
measurement_type = "pIC50"
assay_result = "> 5.00"

[[record]]
molecule = "CCNC(=O)c1noc(-c2cc(-c3ccc(F)cc3)c(O)cc2O)c1-c1ccc(CN2CCOCC2)cc1 [Example 73]"
measurement_type = "pIC50"
assay_result = "> 5.00"

[[record]]
molecule = "CCNC(=O)c1noc(-c2cc(-c3ccccc3)c(O)cc2O)c1-c1ccc(CN2CCOCC2)cc1 [Example 74]"
measurement_type = "pIC50"
assay_result = "> 5.00"

[[record]]
molecule = "CCNC(=O)c1noc(-c2cc(Cl)c(O)cc2O)c1-c1ccccc1CN1CCN(C)CC1 [Example 41s]"
measurement_type = "pIC50"
assay_result = "> 5.00"

[[record]]
molecule = "CCNC(=O)c1noc(-c2cc(Cl)c(O)cc2O)c1-c1ccc2ccccc2c1 [Example 32]"
measurement_type = "pIC50"
assay_result = "> 5.00"

